Source listed as patent US10336762B2.

- Tested on: TNFα
- method description: cells
- Assay type: cell-based, human
- condition: Homo sapiens, Monocyte, LPS-stimulated human monocytes, TNFα content; read-out: EC50 TNF
metric name: EC50 (µM)
Answers are plain numbers, in µM.

1. CNC(=O)c1cnc(-c2ccc3cc(C#N)cnn23)cc1NC12CCC(C(=O)NC3CC3)(CC1)CC2 = 0.063
2. CC(C)(C)OC(=O)N1CC2(CC(Nc3cc(-c4ccc5cc(C#N)cnn45)ncc3C(=O)NC[C@@H](F)C(C)(C)O)C2)C1 = 2.04
3. CC(C)(O)[C@H](F)CNC(=O)c1cnc(-c2ccc3cc(C#N)cnn23)cc1NCC1CC1(F)F (stereo partly shown) = 0.14

Give one value of EC50 per listed compound.
1. CC(=O)NC12CC(Nc3cc(-c4ccc5cc(C#N)cnn45)ncc3C(=O)NC3CCC(C(=O)N4CCOCC4)CC3)(C1)C2 (stereo not shown)
2. COCCOc1ncc(Nc2cc(-c3ccc4cc(C#N)cnn34)ncc2C(=O)NC[C@@H](F)C(C)(C)O)cn1
3. CC(C)(O)[C@H](F)CNC(=O)c1cnc(-c2ccc3cc(C#N)cnn23)cc1Nc1cccc(F)c1
4. CC(C)(O)[C@H](F)CNC(=O)c1cnc(-c2ccc3cc(C#N)cnn23)cc1NC12CCC(C(=O)N3CCOCC3)(CC1)CC2

Result block:
0.098
0.052
0.129
0.065

###

Field: EC50. Provide a value for each of the compounds that follow.
- Test system: TNFα
- method description: cells
- Format: cell-based, human
- condition: Homo sapiens, Monocyte, LPS-stimulated human monocytes, TNFα by TR-FRET; read-out: EC50 TNF
Give bare numbers, in nM.

1. CC(C)(O)[C@H](F)CNC(=O)c1cnc(-c2ccc3cc(C#N)cnn23)cc1Nc1cnn([C@H]2CNC[C@H]2F)c1 [Example 914] = 13
2. COc1nccc(Nc2cc(-c3ccc4cc(C#N)cnn34)ncc2C(=O)NC[C@@H](F)C(C)(C)O)n1 [Example 844] = 70
3. CCCC(=O)NC[C@H]1C[C@H](Nc2cc(-c3ccc4cc(C#N)cnn34)ncc2C(=O)NC[C@@H](F)C(C)(C)O)C1 [Example 825] = 48
4. CC(C)(O)[C@H](F)CNC(=O)c1cnc(-c2ccc3cc(C#N)cnn23)cc1NC[C@@H]1CCN1CC(F)(F)F [Example 891] = 249

Give one value of EC50 per listed compound.
1. CN(C)C(=O)[C@H](F)CNC(=O)c1cnc(-c2ccc3cc(C#N)cnn23)cc1NC12CCC(O)(CC1)CC2 [Example 946]
2. CC1(F)CN(C(=O)CNC(=O)c2cnc(-c3ccc4cc(C#N)cnn34)cc2NC23CCC(O)(CC2)CC3)C1 [Example 797]
3. Cn1cnc(CNC(=O)c2cnc(-c3ccc4cc(C#N)cnn34)cc2NC23CCC(O)(CC2)CC3)c1 [Example 929]

Result block:
120
38
126

###

- Tested on: TNFα
- method description: cells
- Format: cell-based, human
- condition: Homo sapiens, Monocyte, LPS-stimulated human monocytes, TNFα content; read-out: EC50 TNF
pEC50: −log10 of the molar value.
Use 7 as the dividing line for pEC50, with the line itself on the TRUE side and lower values as FALSE.

Look over these answered cases.
1. COC12CCC(Nc3cc(-c4ccc5cc(C#N)cnn45)ncc3C(=O)NC[C@@H](F)C(C)(C)O)(CC1)CC2 [Example 414] = FALSE
2. COC(=O)NCC(C)(C)CNc1cc(-c2ccc3cc(C#N)cnn23)ncc1C(=O)NC[C@@H](F)C(C)(C)O [Example 718] = FALSE
3. CNC(=O)CNC(=O)c1cnc(-c2ccc3cc(C#N)cnn23)cc1NC12CCC(O)(CC1)CC2 [Example 334] = FALSE
4. COC(=O)NCC1(F)CC(Nc2cc(-c3ccc4cc(C#N)cnn34)ncc2C(=O)NC[C@@H](F)C(C)(C)O)C1 (some centres unmarked) [Example 758] = TRUE
5. N#Cc1cnn2c(-c3cc(NC45CCC(O)(CC4)CC5)c(C(=O)NCC(=O)N4CCOCC4)cn3)ccc2c1 [Example 785] = TRUE

Query block: I'd appreciate it if you could say whether CN(C)C(=O)O[C@H]1CC[C@H](Nc2cc(-c3ccc4cc(C#N)cnn34)ncc2C(=O)NC[C@@H](F)C(C)(C)O)CC1 [Example 164] has pEC50 at least equal to 7.
Result block: FALSE

Query block: I'd appreciate it if you could say whether CC(C)(O)[C@H](F)CNC(=O)c1cnc(-c2ccc3cc(C#N)cnn23)cc1NS(C)(=O)=O [Example 10] has pEC50 at least equal to 7.
Result block: FALSE

Query block: I'd appreciate it if you could say whether CC(C)Nc1cc(-c2ccc3cc(C#N)cnn23)ncc1C(=O)NCC1(O)CCS(=O)(=O)C1 (centres unmarked) [Example 122] has pEC50 at least equal to 7.
Result block: FALSE

Query block: I'd appreciate it if you could say whether COC(=O)NC[C@H]1C[C@@H](Nc2cc(-c3ccc4cc(C#N)cnn34)ncc2C(=O)NC[C@@H](F)C(C)(C)O)C1 [Example 698] has pEC50 at least equal to 7.
Result block: FALSE

Query block: I'd appreciate it if you could say whether CC(=O)N[C@H]1CC[C@@H](Nc2cc(-c3ccc4cc(C#N)cnn34)ncc2C(=O)NC[C@@H](F)C(C)(C)O)CC1 [Example 320] has pEC50 at least equal to 7.
Result block: FALSE

Query block: I'd appreciate it if you could say whether CC(C)(O)[C@H](F)CNC(=O)c1cnc(-c2ccc3cc(C#N)cnn23)cc1N[C@H]1C[C@H](CNC(=O)C2CC2(F)F)C1 (some centres unmarked) [Example 695] has pEC50 at least equal to 7.
Result block: TRUE

###

- tgt: IRAK4 enzyme (Homo sapiens (Human), UniProt Q9NWZ3)
- Sequence (Q9NWZ3 whole entry): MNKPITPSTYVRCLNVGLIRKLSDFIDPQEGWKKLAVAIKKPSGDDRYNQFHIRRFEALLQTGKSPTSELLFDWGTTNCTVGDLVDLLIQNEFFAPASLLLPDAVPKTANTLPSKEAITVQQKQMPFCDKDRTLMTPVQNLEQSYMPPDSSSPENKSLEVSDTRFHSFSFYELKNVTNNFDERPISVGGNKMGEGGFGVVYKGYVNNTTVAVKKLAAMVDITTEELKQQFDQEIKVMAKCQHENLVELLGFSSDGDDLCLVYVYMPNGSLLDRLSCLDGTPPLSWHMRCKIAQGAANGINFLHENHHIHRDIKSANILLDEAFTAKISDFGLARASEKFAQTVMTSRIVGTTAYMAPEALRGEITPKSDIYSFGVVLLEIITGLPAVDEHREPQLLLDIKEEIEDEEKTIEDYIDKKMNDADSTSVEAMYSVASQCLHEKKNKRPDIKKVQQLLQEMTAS
- method description: biochemical
- Type: biochemical
- condition: IRAK4 enzyme, TR-FRET, 500 μM ATP
Field: pIC50. Provide a value for each of the compounds that follow.
One number for each entry, as −log10 of the molar value.

Example cases with answers are listed next.
1) CC(C)(O)[C@H](F)CNC(=O)c1cnc(-c2ccc3cc(C#N)cnn23)cc1NC1CCN(C2CC2)CC1 = 8.40
2) COC(=O)N1CC2(CC(Nc3cc(-c4ccc5cc(C#N)cnn45)ncc3C(=O)NC[C@@H](F)C(C)(C)O)C2)C1 = 8.70
3) CC(C)(O)[C@H](F)CNC(=O)c1cnc(-c2ccc3cc(C#N)cnn23)cc1N[C@@H]1CCCNC1 = 7.85
4) CC(C)(O)[C@H](F)CNC(=O)c1cnc(-c2ccc3cc(C#N)cnn23)cc1N[C@H]1CC[C@@H](N)C1 = 8.70

Continue with the next compound.
Query block: For CC(C)(O)[C@H](F)CNC(=O)c1cnc(-c2ccc3cc(C#N)cnn23)cc1Nc1nc(-c2ccccc2)cs1 , write its pIC50.
Result block: 8.30

###

- Test system: TNFα
- method description: cells
- Assay type: cell-based, human
- condition: Homo sapiens, Monocyte, LPS-stimulated human monocytes, TNFα by TR-FRET; read-out: EC50 TNF
Field: EC50. Provide a value for each of the molecules that follow.
Numbers only, in µM.

Example cases with answers are listed next.
1) C[C@H](NC(=O)c1cnc(-c2ccc3cc(C#N)cnn23)cc1NC12CCC(O)(CC1)CC2)C(=O)N1CC(F)(F)C1 = 0.587
2) CC(=O)NC[C@@H]1CCCN1c1ccc(Nc2cc(-c3ccc4cc(C#N)cnn34)ncc2C(=O)NC[C@@H](F)C(C)(C)O)cn1 = 0.141
3) CC(C)(O)[C@H](F)CNC(=O)c1cnc(-c2ccc3cc(C#N)cnn23)cc1Nc1cncc(OCC(F)(F)F)c1 = 0.009
4) CC(C)(O)[C@H](F)CNC(=O)c1cnc(-c2ccc3cc(C#N)cnn23)cc1Nc1ccc(Cl)nc1 = 0.026
5) CC(C)(O)[C@H](F)CNC(=O)c1cnc(-c2ccc3cc(C#N)cnn23)cc1Nc1cnc2c(c1)COCC2 = 0.046

Give one value of EC50 per listed molecule.
1. CN1CCOc2cc(Nc3cc(-c4ccc5cc(C#N)cnn45)ncc3C(=O)NC[C@@H](F)C(C)(C)O)cnc21
2. Cn1nccc1CNC(=O)c1cnc(-c2ccc3cc(C#N)cnn23)cc1NC12CCC(O)(CC1)CC2
3. COC(=O)N1CC2(CC(Nc3cc(-c4ccc5cc(C#N)cnn45)ncc3C(=O)NC[C@@H](F)C(C)(C)O)C2)C1

Result block:
[0.024, 0.271, 0.421]

###

Field: IC50. Provide a value for each of the molecules that follow.
- tgt: IRAK4 enzyme (Homo sapiens (Human))
- method description: biochemical
- Assay type: biochemical
- condition: IRAK4 enzyme, TR-FRET, 500 μM ATP
Numbers only, in nM.

Example cases with answers are listed next.
1. COC1(C)CN(C(=O)C23CCC(Nc4cc(-c5ccc6cc(C#N)cnn56)ncc4C(=O)NC[C@@H](F)C(C)(C)O)(CC2)CC3)C1 [Example 158] = 2
2. CC(C)(O)[C@H](F)CNC(=O)c1cnc(-c2ccc3cc(C#N)cnn23)cc1Nc1cnn([C@H]2CCOC2)c1 [Example 237] = 1
3. CC(C)Nc1cc(-c2ccc3cc(C#N)cnn23)ncc1C(=O)NC1(C)COC1 [Example 35] = 3
4. CC(C)(O)[C@H](F)CNC(=O)c1cnc(-c2ccc3cc(C#N)cnn23)cc1NC1CC2CCC(C1)N2S(C)(=O)=O (stereo partly shown) [Example 15] = 4
5. N#Cc1cnn2c(-c3cc(NC45CCC(O)(CC4)CC5)c(C(=O)NCCN4CCCC4=O)cn3)ccc2c1 [Example 809] = 1

Continue with the next molecule.
Query block: For CC(C)(O)[C@H](F)CNC(=O)c1cnc(-c2ccc3cc(C#N)cnn23)cc1N[C@H]1CC[C@H](NC(=O)C2CCOCC2)CC1 [Example 294] , write its IC50.
Result block: 3
